IC50 values recorded for Cytochrome P450 3A4 (Homo sapiens, UniProt P08684)

{"Compound": "CCCCN1C(=O)[C@H]([C@H](O)C2CCCCC2)NC(=O)C12CCN(Cc1ccc(Oc3ccc(C(=O)O)cc3)cc1)CC2", "IC50": "> 30 µM"}
{"Compound": "CCCCN1C(=O)[C@@H]([C@H](O)C(C)C)NC(=O)C12CCN(Cc1ccc(Oc3ccccc3)cc1)CC2", "IC50": "> 30 µM"}
{"Compound": "CCCCN1C(=O)[C@H](CC2CCCCC2)NC(=O)C12CCN(Cc1ccc(Oc3ccc(C(=O)O)cc3)cc1)CC2.Cl", "IC50": "24.9 µM"}
{"Compound": "CCCCN1C(=O)[C@@H]([C@H](O)C2CCCCC2)NC(=O)C12CCN(Cc1ccc(Oc3ccc(C(=O)O)cc3)cc1)CC2.Cl [APLAVIROC HYDROCHLORIDE]", "IC50": "> 30 µM"}
{"Compound": "CCCCN1C(=O)[C@H]([C@@H](O)C2CCCCC2)NC(=O)C12CCN(Cc1ccc(Oc3ccc(C(=O)O)cc3)cc1)CC2.Cl", "IC50": "> 30 µM"}
{"Compound": "CCCCN1C(=O)C(CC(C)C)NC(=O)C12CCN(Cc1ccc(Oc3ccccc3)cc1)CC2.Cl (racemic)", "IC50": "19.7 µM"}
{"Compound": "CCCCN1C(=O)[C@@H]([C@@H](O)C2CCCCC2)NC(=O)C12CCN(Cc1ccc(Oc3ccc(C(=O)O)cc3)cc1)CC2.Cl", "IC50": "> 30 µM"}

----------
target: Cytochrome P450 2C9 (Homo sapiens, UniProt P11712)
Sequence (P11712 whole entry): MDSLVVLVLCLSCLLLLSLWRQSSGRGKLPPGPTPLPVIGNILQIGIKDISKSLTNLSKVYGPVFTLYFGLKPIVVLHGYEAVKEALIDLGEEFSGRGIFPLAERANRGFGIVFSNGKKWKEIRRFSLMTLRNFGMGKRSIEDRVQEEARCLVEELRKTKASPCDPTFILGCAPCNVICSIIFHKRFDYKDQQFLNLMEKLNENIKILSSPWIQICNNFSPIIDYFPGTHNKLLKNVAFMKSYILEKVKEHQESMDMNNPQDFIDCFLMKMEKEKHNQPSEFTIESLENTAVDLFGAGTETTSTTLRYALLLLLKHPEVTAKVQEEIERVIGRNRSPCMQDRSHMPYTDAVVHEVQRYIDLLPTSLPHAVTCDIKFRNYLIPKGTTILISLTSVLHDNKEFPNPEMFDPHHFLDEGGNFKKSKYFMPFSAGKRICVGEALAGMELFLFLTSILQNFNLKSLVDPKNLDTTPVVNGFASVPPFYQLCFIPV
Listed here are compounds together with their documented IC50.
Measured Property: IC50

{"Compound": "CCCCN1C(=O)[C@@H]([C@H](O)C2CCCCC2)NC(=O)C12CCN(Cc1ccc(Oc3ccccc3)cc1)CC2.Cl", "Measured Property": "IC50", "Reading": "3.7 µM"}
{"Compound": "CCCCN1C(=O)[C@H]([C@H](O)C2CCCCC2)NC(=O)C12CCN(Cc1ccc(Oc3ccc(C(=O)O)cc3)cc1)CC2", "Measured Property": "IC50", "Reading": "> 30 µM"}
{"Compound": "CCCCN1C(=O)C(CC2CCCCC2)NC(=O)C12CCN(Cc1ccc(Oc3ccccc3)cc1)CC2.Cl (racemic)", "Measured Property": "IC50", "Reading": "5.5 µM"}
{"Compound": "CCCCN1C(=O)[C@@H]([C@@H](O)C2CCCCC2)NC(=O)C12CCN(Cc1ccc(Oc3ccc(C(=O)O)cc3)cc1)CC2.Cl", "Measured Property": "IC50", "Reading": "18 µM"}

----------
assay: Half life in rat at 3 mg/kg, iv; assay type: ADME, organism-based; set-up: dose 3 mg/kg, route intravenous; settings: in vivo

{"Molecule": "CCCCN1C(=O)[C@H]([C@@H](O)C2CCCCC2)NC(=O)C12CCN(Cc1ccc(Oc3ccc(C(=O)O)cc3)cc1)CC2.Cl", "half-life": "16.2 min"}
{"Molecule": "CCCCN1C(=O)[C@H](CC2CCCCC2)NC(=O)C12CCN(Cc1ccc(Oc3ccc(C(=O)O)cc3)cc1)CC2.Cl", "half-life": "11.1 min"}
{"Molecule": "CCCCN1C(=O)[C@@H]([C@H](O)C2CCCCC2)NC(=O)C12CCN(Cc1ccc(Oc3ccc(C(=O)O)cc3)cc1)CC2.Cl [APLAVIROC HYDROCHLORIDE]", "half-life": "21.8 min"}

----------
experiment: Solubility of the compound; assay type: physicochemical
Listed here are compounds together with their documented solubility.
Measured Property: solubility (µM)

{"Compound": "CCCCN1C(=O)[C@@H]([C@@H](O)C2CCCCC2)NC(=O)C12CCN(Cc1ccc(Oc3ccc(C(=O)O)cc3)cc1)CC2.Cl", "Reading": 81}
{"Compound": "CCCCN1C(=O)[C@@H]([C@H](O)C2CCCCC2)NC(=O)C12CCN(Cc1ccc(Oc3ccc(C(=O)O)cc3)cc1)CC2.Cl [APLAVIROC HYDROCHLORIDE]", "Reading": 70}
{"Compound": "CCCCN1C(=O)[C@H]([C@@H](O)C2CCCCC2)NC(=O)C12CCN(Cc1ccc(Oc3ccc(C(=O)O)cc3)cc1)CC2.Cl", "Reading": 80}
{"Compound": "CCCCN1C(=O)[C@H]([C@H](O)C2CCCCC2)NC(=O)C12CCN(Cc1ccc(Oc3ccc(C(=O)O)cc3)cc1)CC2", "Reading": 85}

----------
Listed here are compounds together with their documented bioavailability.
test: Oral bioavailability in rat at 10 mg/kg; type: ADME, organism-based; settings: in vivo

{"Compound": "CCCCN1C(=O)C(CC(C)C)NC(=O)C12CCN(Cc1ccc(Oc3ccccc3)cc1)CC2.Cl (racemic)", "bioavailability [%]": 1.3}
{"Compound": "CCCCN1C(=O)[C@H]([C@@H](O)C2CCCCC2)NC(=O)C12CCN(Cc1ccc(Oc3ccc(C(=O)O)cc3)cc1)CC2.Cl", "bioavailability [%]": 6.5}
{"Compound": "CCCCN1C(=O)C(CC2CCCCC2)NC(=O)C12CCN(Cc1ccc(Oc3ccccc3)cc1)CC2.Cl (racemic)", "bioavailability [%]": 1.9}
{"Compound": "CCCCN1C(=O)[C@@H]([C@H](O)C2CCCCC2)NC(=O)C12CCN(Cc1ccc(Oc3ccc(C(=O)O)cc3)cc1)CC2.Cl [APLAVIROC HYDROCHLORIDE]", "bioavailability [%]": 23}

----------
biological target: UniProtKB P51681; assay: Antagonist activity at human CCR5 expressed in CHO cells assessed as inhibition of MIP-1alpha-induced calcium mobilization Ca assay
Sequence (P51681 whole entry): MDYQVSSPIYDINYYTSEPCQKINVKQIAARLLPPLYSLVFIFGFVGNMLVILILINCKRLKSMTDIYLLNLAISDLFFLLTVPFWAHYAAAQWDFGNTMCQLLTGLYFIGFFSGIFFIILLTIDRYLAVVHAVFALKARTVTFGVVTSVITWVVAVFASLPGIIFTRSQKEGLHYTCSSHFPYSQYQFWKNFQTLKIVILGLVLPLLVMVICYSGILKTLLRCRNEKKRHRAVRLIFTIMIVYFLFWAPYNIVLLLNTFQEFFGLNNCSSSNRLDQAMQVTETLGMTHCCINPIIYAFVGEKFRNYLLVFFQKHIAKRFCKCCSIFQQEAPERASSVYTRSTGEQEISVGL
Measured Property: IC50 (nM)

{"Smiles Code": "CCCCN1C(=O)[C@@H]([C@H](O)C(C)C)NC(=O)C12CCN(Cc1ccc(Oc3ccccc3)cc1)CC2", "Reading": 84}

----------
assay: Cmax in rat at 10 mg/kg, po; format: ADME, organism-based; parameters: dose 10 mg/kg, route oral; settings: in vivo
Decide using Cmax alone. Strictly below 300 ng/mL: class 1. Equal to or above 300 ng/mL: class 0.

{"Compound": "CCCCN1C(=O)[C@H]([C@@H](O)C2CCCCC2)NC(=O)C12CCN(Cc1ccc(Oc3ccc(C(=O)O)cc3)cc1)CC2.Cl", "Class Assignment": "class 1"}
{"Compound": "CCCCN1C(=O)[C@@H]([C@@H](O)C2CCCCC2)NC(=O)C12CCN(Cc1ccc(Oc3ccc(C(=O)O)cc3)cc1)CC2.Cl", "Class Assignment": "class 1"}
{"Compound": "CCCCN1C(=O)[C@@H]([C@H](O)C2CCCCC2)NC(=O)C12CCN(Cc1ccc(Oc3ccc(C(=O)O)cc3)cc1)CC2.Cl [APLAVIROC HYDROCHLORIDE]", "Class Assignment": "class 0"}
{"Compound": "CCCCN1C(=O)[C@H](CC2CCCCC2)NC(=O)C12CCN(Cc1ccc(Oc3ccc(C(=O)O)cc3)cc1)CC2.Cl", "Class Assignment": "class 0"}
{"Compound": "CCCCN1C(=O)[C@H]([C@H](O)C2CCCCC2)NC(=O)C12CCN(Cc1ccc(Oc3ccc(C(=O)O)cc3)cc1)CC2", "Class Assignment": "class 1"}

----------
assay: AUC in rat at 3 mg/kg, iv; type: ADME, organism-based, Plasma; set-up: dose 3 mg/kg, route intravenous; conditions: plasma
Listed here are molecules together with their documented AUC.
Measured Property: AUC (ng·h/mL)

{"Molecule": "CCCCN1C(=O)[C@H]([C@@H](O)C2CCCCC2)NC(=O)C12CCN(Cc1ccc(Oc3ccc(C(=O)O)cc3)cc1)CC2.Cl", "Reading": 988}
{"Molecule": "CCCCN1C(=O)[C@@H]([C@H](O)C2CCCCC2)NC(=O)C12CCN(Cc1ccc(Oc3ccc(C(=O)O)cc3)cc1)CC2.Cl [APLAVIROC HYDROCHLORIDE]", "Reading": 4400}

----------
experiment: AUC in rat at 10 mg/kg, po; assay type: ADME, organism-based, Plasma; set-up: dose 10 mg/kg, route oral; conditions: plasma
Listed here are compounds together with their documented AUC.

{"Compound": "CCCCN1C(=O)[C@H]([C@H](O)C2CCCCC2)NC(=O)C12CCN(Cc1ccc(Oc3ccc(C(=O)O)cc3)cc1)CC2", "Unit Info": "µg·h/mL", "AUC": 0.126}
{"Compound": "CCCCN1C(=O)[C@@H]([C@@H](O)C2CCCCC2)NC(=O)C12CCN(Cc1ccc(Oc3ccc(C(=O)O)cc3)cc1)CC2.Cl", "Unit Info": "µg·h/mL", "AUC": 0.0675}
{"Compound": "CCCCN1C(=O)[C@@H]([C@H](O)C2CCCCC2)NC(=O)C12CCN(Cc1ccc(Oc3ccc(C(=O)O)cc3)cc1)CC2.Cl [APLAVIROC HYDROCHLORIDE]", "Unit Info": "µg·h/mL", "AUC": 3.42}
{"Compound": "CCCCN1C(=O)[C@H]([C@@H](O)C2CCCCC2)NC(=O)C12CCN(Cc1ccc(Oc3ccc(C(=O)O)cc3)cc1)CC2.Cl", "Unit Info": "µg·h/mL", "AUC": 0.213}

From: ChEMBL document CHEMBL1667838
